# assayExplanation: AUC (0 to t) in human OVCAR-3 cells xenografted in female Balb/c nude mouse plasma at 20 mg/kg, po administered once daily
# Format: ADME, organism-based
endpoint: AUC(0-t) (ng·h/mL)
The reply should be a number in ng·h/mL, with the unit left off.

Request the reported AUC(0-t) associated with CN1CC(F)(F)CCN(C)[C@H]2CC[C@@H](C2)Nc2ncc(C(F)(F)F)c(n2)-c2c[nH]c3c(P(C)(C)=O)c(ccc23)C1=O
3940

---

The compounds listed here are annotated with their Cmax.
# assayExplanation: Cmax in rat at 5 mg/kg, po
# Type: ADME, organism-based
# conditionSummary: in vivo
The reply should be a number in ng/mL, with the unit left off.

[[record]]
compound = "CN1CC(F)(F)CCN(C)[C@H]2CC[C@@H](C2)Nc2ncc(C(F)(F)F)c(n2)-c2c[nH]c3c(P(C)(C)=O)c(ccc23)C1=O"
endpoint = "Cmax"
unitofmeasurement = "ng/mL"
observedvalue = 165


Request the reported Cmax associated with CC1(C)CC[C@H](Nc2ncc(C(F)(F)F)c(-c3c[nH]c4c(P(C)(C)=O)c(C#N)ccc34)n2)CN1 [SY-5609]
76

---

# assayExplanation: Drug concentration in rat plasma at 5 mg/kg, po measured after 0.5 hrs
# Type: ADME, organism-based
endpoint: concentration at 0.5 h (ng/mL)
The reply should be a number in ng/mL, with the unit left off.

[[record]]
structuresmiles = "CN1CC(F)(F)CCN(C)[C@H]2CC[C@@H](C2)Nc2ncc(C(F)(F)F)c(n2)-c2c[nH]c3c(P(C)(C)=O)c(ccc23)C1=O"
endpoint = "concentration at 0.5 h"
unitofmeasurement = "ng/mL"
observedvalue = 33.9


Attention now shifts to the item below.
Request the reported concentration at 0.5 h associated with CC1(C)CC[C@H](Nc2ncc(C(F)(F)F)c(-c3c[nH]c4c(P(C)(C)=O)c(C#N)ccc34)n2)CN1
13.4

---

# assayExplanation: Cmax in human OVCAR-3 cells xenografted in female Balb/c nude mouse plasma at 5 mg/kg, po administered once daily
# Format: ADME, organism-based
The compounds listed here are annotated with their Cmax.
Entry format: amount then unit.

[[record]]
structuresmiles = "CN1CC(F)(F)CCN(C)[C@H]2CC[C@@H](C2)Nc2ncc(C(F)(F)F)c(n2)-c2c[nH]c3c(P(C)(C)=O)c(ccc23)C1=O"
endpoint = "Cmax"
observedvalue = "400 ng/mL"


Attention now shifts to the item below.
Request the reported Cmax associated with CC1(C)CC[C@H](Nc2ncc(C(F)(F)F)c(-c3c[nH]c4c(P(C)(C)=O)c(C#N)ccc34)n2)CN1
80 ng/mL

---

The molecules listed here are annotated with their AUC(0-t).
# assayExplanation: AUC(0 to t) in mouse at 1 mg/kg, iv
# Assay type: ADME, organism-based
# conditionSummary: in vivo
The reply should be a number in µg·h/mL, with the unit left off.

[[record]]
molecule = "CC1(C)CC[C@H](Nc2ncc(C(F)(F)F)c(-c3c[nH]c4c(P(C)(C)=O)c(C#N)ccc34)n2)CN1 [SY-5609]"
observedvalue = 0.406


Attention now shifts to the item below.
Request the reported AUC(0-t) associated with CN1CC(F)(F)CCN(C)[C@H]2CC[C@@H](C2)Nc2ncc(C(F)(F)F)c(n2)-c2c[nH]c3c(P(C)(C)=O)c(ccc23)C1=O
0.315

---

# systemName: Cyclin-dependent kinase 4/cyclin D1 (Homo sapiens, UniProt P11802)
# Sequence (P11802 whole entry): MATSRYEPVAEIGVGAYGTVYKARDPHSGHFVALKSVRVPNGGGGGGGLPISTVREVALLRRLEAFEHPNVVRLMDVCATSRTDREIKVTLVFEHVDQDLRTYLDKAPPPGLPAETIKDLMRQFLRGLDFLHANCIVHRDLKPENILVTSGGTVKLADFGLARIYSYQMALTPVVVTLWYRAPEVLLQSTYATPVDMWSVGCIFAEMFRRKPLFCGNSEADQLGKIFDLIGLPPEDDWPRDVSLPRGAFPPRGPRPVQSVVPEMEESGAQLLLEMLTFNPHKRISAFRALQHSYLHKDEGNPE
# Sequence (P24385 whole entry, further chain): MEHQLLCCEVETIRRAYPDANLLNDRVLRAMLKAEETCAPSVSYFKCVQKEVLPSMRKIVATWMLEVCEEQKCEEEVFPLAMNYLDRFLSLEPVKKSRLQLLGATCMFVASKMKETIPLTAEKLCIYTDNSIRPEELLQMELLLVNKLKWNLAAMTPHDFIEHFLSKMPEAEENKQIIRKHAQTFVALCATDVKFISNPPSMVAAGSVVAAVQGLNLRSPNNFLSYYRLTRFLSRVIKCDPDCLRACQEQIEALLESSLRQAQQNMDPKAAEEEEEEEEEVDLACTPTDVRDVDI
# assayExplanation: Inhibition of CDK4/CyclinD1 (unknown origin)
endpoint: pIC50
Scale: pIC50 equals -log10([C]), with [C] in mol/L.

Request the reported pIC50 associated with CN1CC(F)(F)CCN(C)[C@H]2CC[C@@H](C2)Nc2ncc(C(F)(F)F)c(n2)-c2c[nH]c3c(P(C)(C)=O)c(ccc23)C1=O
6.84

---

The compounds listed here are annotated with their AUC(0-t).
# assayExplanation: AUC(0 to t) in female Balb/c nude mouse at 5 mg/kg, po
# Format: ADME, organism-based
# conditionSummary: in vivo
The reply should be a number in µg·h/mL, with the unit left off.

Example compounds with recorded AUC(0-t):
[[record]]
structuresmiles = "CN1CCCCN(C)[C@H]2CC[C@@H](C2)Nc2ncc(C(F)(F)F)c(n2)-c2c[nH]c3c(P(C)(C)=O)c(ccc23)C1=O"
observedvalue = 0.302

[[record]]
structuresmiles = "CN1CC(F)(F)CCN(C)[C@H]2CC[C@@H](C2)Nc2ncc(C(F)(F)F)c(n2)-c2c[nH]c3c(P(C)(C)=O)c(ccc23)C1=O"
observedvalue = 0.938

[[record]]
structuresmiles = "CN1C[C@@H](F)CCN(C)[C@H]2CC[C@@H](C2)Nc2ncc(C(F)(F)F)c(n2)-c2c[nH]c3c(P(C)(C)=O)c(ccc23)C1=O"
observedvalue = 0.365


Request the reported AUC(0-t) associated with CN1CCCCO[C@H]2CC[C@@H](C2)Nc2ncc(C(F)(F)F)c(n2)-c2c[nH]c3c(P(C)(C)=O)c(ccc23)C1=O
0.563

Request the reported AUC(0-t) associated with CN1CCOCCN(C)[C@H]2CC[C@@H](C2)Nc2ncc(C(F)(F)F)c(n2)-c2c[nH]c3c(P(C)(C)=O)c(ccc23)C1=O
0.572

---

# assayExplanation: Half life in dog at 0.2 mg/kg, iv
# Format: ADME, organism-based, Canis lupus familiaris
# conditionSummary: in vivo
endpoint: half-life (h)
The reply should be a number in h, with the unit left off.

Request the reported half-life associated with CN1CC(F)(F)CCN(C)[C@H]2CC[C@@H](C2)Nc2ncc(C(F)(F)F)c(n2)-c2c[nH]c3c(P(C)(C)=O)c(ccc23)C1=O
3.4

---

# systemName: CDK4/Cyclin D3 (Homo sapiens)
# Sequence (P11802 whole entry): as the sequence (P11802 whole entry) above
# Sequence (P30281 whole entry, further chain): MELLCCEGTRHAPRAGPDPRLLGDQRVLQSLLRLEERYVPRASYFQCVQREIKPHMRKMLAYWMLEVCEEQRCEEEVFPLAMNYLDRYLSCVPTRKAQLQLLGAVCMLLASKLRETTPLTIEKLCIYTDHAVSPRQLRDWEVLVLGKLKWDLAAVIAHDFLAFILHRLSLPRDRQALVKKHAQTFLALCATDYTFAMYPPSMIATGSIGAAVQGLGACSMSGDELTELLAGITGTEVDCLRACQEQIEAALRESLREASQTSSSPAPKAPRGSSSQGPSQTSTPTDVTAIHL
# assayExplanation: Inhibition of CDK4/Cyclin D3 (unknown origin)
endpoint: IC50 (nM)
The reply should be a number in nM, with the unit left off.

# returns recorded IC50 (system: CDK4/Cyclin D3 (Homo sapiens)) for CN1CC(F)(F)CCN(C)[C@H]2CC[C@@H](C2)Nc2ncc(C(F)(F)F)c(n2)-c2c[nH]c3c(P(C)(C)=O)c(ccc23)C1=O
13.1

---

# assayExplanation: Cmax in human OVCAR-3 cells xenografted in female Balb/c nude mouse plasma at 10 mg/kg, po administered once daily
# Format: ADME, organism-based
endpoint: Cmax (ng/mL)
The reply should be a number in ng/mL, with the unit left off.

Request the reported Cmax associated with CN1CC(F)(F)CCN(C)[C@H]2CC[C@@H](C2)Nc2ncc(C(F)(F)F)c(n2)-c2c[nH]c3c(P(C)(C)=O)c(ccc23)C1=O
580

---

# assayExplanation: Cmax in human OVCAR-3 cells xenografted in female Balb/c nude mouse plasma at 20 mg/kg, po administered once daily
# Assay type: ADME, organism-based
endpoint: Cmax (ng/mL)
The reply should be a number in ng/mL, with the unit left off.

Request the reported Cmax associated with CN1CC(F)(F)CCN(C)[C@H]2CC[C@@H](C2)Nc2ncc(C(F)(F)F)c(n2)-c2c[nH]c3c(P(C)(C)=O)c(ccc23)C1=O
1690

---

# systemName: Cyclin-dependent kinase 14/Cyclin-Y (Homo sapiens)
# Sequence (O94921 whole entry): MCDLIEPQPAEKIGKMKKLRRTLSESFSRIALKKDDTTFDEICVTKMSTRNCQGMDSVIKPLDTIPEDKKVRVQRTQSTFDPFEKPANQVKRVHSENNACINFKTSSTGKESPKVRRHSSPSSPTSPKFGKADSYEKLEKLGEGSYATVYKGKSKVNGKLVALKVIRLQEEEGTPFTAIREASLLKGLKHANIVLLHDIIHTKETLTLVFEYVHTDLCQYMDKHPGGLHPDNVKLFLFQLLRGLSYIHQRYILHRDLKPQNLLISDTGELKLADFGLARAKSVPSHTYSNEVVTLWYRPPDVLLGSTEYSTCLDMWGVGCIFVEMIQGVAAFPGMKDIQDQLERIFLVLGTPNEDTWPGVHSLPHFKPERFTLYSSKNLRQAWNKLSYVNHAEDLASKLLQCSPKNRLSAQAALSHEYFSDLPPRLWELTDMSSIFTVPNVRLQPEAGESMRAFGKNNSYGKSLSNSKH
# Sequence (Q8ND76 whole entry, further chain): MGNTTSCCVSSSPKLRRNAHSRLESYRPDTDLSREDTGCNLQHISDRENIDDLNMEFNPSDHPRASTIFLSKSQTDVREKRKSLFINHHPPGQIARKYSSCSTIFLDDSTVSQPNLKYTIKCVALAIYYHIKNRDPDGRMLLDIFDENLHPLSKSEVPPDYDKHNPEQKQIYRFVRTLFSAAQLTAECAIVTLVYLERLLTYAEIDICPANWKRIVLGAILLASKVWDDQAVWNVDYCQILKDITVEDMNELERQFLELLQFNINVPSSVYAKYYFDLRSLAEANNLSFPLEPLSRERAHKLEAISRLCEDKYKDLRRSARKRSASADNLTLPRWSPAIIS
# assayExplanation: Inhibition of CDK14/Cyclin Y (unknown origin)
endpoint: IC50
Entry format: amount then unit.

Request the reported IC50 associated with CN1CC(F)(F)CCN(C)[C@H]2CC[C@@H](C2)Nc2ncc(C(F)(F)F)c(n2)-c2c[nH]c3c(P(C)(C)=O)c(ccc23)C1=O
0.0161 µM

---

# assayExplanation: Cmax in Sprague-Dawley rat at 300 mg/kg, po
# Assay type: ADME, organism-based
# conditionSummary: in vivo
endpoint: Cmax
Entry format: amount then unit.

Request the reported Cmax associated with CN1CC(F)(F)CCN(C)[C@H]2CC[C@@H](C2)Nc2ncc(C(F)(F)F)c(n2)-c2c[nH]c3c(P(C)(C)=O)c(ccc23)C1=O
3310 ng/mL

---

# assayExplanation: AUC(0 to infinity) in female Balb/c nude mouse at 1 mg/kg, iv
# Format: ADME, organism-based
# conditionSummary: in vivo
endpoint: AUC(0-inf) (ng·h/mL)
The reply should be a number in ng·h/mL, with the unit left off.

[[record]]
structuresmiles = "CP(C)(=O)c1c2ccc3c(c[nH]c13)-c1nc(ncc1C(F)(F)F)N[C@H]1CC[C@@H](C1)NCCCCNC2=O"
observedvalue = 333


Attention now shifts to the item below.
Request the reported AUC(0-inf) associated with CP(C)(=O)c1c2ccc3c(c[nH]c13)-c1nc(ncc1C(F)(F)F)N[C@H]1CC[C@@H](C1)NCCOCCNC2=O
163

---

# assayExplanation: Oral bioavailability in female Balb/c nude mouse at 5 mg/kg
# Type: ADME, organism-based
# conditionSummary: in vivo
# cutoff 30% applies to bioavailability; >= gives Satisfied, < gives Not satisfied

[[record]]
structuresmiles = "CN1CCCCN(C)[C@H]2CC[C@@H](C2)Nc2ncc(C(F)(F)F)c(n2)-c2c[nH]c3c(P(C)(C)=O)c(ccc23)C1=O"
classification = "Not satisfied"

[[record]]
structuresmiles = "CN1CCOCCN(C)[C@H]2CC[C@@H](C2)Nc2ncc(C(F)(F)F)c(n2)-c2c[nH]c3c(P(C)(C)=O)c(ccc23)C1=O"
classification = "Not satisfied"

[[record]]
structuresmiles = "CN1C[C@@H](F)CCN(C)[C@H]2CC[C@@H](C2)Nc2ncc(C(F)(F)F)c(n2)-c2c[nH]c3c(P(C)(C)=O)c(ccc23)C1=O"
classification = "Not satisfied"


Now consider a different compound.
Could you please find out whether CN1CC(F)(F)CCN(C)[C@H]2CC[C@@H](C2)Nc2ncc(C(F)(F)F)c(n2)-c2c[nH]c3c(P(C)(C)=O)c(ccc23)C1=O has bioavailability that meets 30% or exceeds it?
Satisfied

Hey, just so you know, these numbers are from ChEMBL document CHEMBL6092221.
